# STUDY_SYSTEM: D(2) dopamine receptor (Homo sapiens, UniProt P14416)
# Sequence (P14416 whole entry): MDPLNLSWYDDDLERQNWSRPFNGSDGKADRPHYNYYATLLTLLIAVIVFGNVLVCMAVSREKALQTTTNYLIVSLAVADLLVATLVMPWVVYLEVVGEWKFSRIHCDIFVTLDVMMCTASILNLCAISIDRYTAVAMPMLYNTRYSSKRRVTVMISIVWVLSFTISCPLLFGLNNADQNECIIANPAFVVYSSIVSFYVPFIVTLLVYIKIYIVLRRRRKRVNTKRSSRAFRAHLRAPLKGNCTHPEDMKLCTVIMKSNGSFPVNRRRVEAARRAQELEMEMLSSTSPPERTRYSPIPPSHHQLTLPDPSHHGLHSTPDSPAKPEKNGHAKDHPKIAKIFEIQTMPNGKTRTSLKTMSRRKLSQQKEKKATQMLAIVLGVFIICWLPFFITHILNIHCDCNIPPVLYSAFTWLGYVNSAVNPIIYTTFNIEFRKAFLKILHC
# METHOD_DESCRIPTION: Compound was selective with respect to binding at the Dopamine receptor D2
ENDPOINT_LABEL: IC50

Query string: Could you share which IC50 value was measured for "COc1cc(N)c(Cl)cc1C(=O)NCC12CC3CN(CC3C1)C2" ?
Result string: > 10 µM

---

# STUDY_SYSTEM: UniProtKB Q62758
# Sequence (Q62758 whole entry): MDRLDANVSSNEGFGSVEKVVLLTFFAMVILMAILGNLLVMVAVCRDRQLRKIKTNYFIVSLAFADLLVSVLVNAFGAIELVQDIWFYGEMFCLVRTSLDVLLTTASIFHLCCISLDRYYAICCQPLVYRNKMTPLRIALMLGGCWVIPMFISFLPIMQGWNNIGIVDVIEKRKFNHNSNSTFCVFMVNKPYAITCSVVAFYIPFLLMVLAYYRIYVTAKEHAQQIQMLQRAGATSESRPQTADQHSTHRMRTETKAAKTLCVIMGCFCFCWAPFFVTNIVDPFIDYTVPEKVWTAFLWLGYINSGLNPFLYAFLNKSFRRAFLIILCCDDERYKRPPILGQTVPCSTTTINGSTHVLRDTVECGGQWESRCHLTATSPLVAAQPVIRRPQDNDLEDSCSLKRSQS
# METHOD_DESCRIPTION: Agonist activity against serotonin 5-HT4 receptor in rat tunica muscularis mucosae assay
Can you tell me pEC50 for the items I'm about to list?
The value called pEC50 is obtained by taking minus log10 of the concentration in mol/L.

Query string: Could you share which pEC50 value was measured for COc1cc(N)c(Cl)cc1C(=O)NC1C2CC3CN(C2)CC31.Cl (centres undefined) ?
Result string: 7.29

Query string: Could you share which pEC50 value was measured for "COc1cc(N)c(Cl)cc1C(=O)NCCC12CC3CN(CC3C1)C2" ?
Result string: 5.78

---

# METHOD_DESCRIPTION: Compound was tested for inhibitory activity against 5-hydroxytryptamine 1 receptor
pIC50: −log10 of the molar value.
ENDPOINT_LABEL: pIC50

Query string: Could you share which pIC50 value was measured for COc1cc(N)c(Cl)cc1C(=O)NC1C2CC3CN(C2)CC31.Cl (stereo unspecified) ?
Result string: < 5.00
